tested on: POLCO; test: Pre-emergence herbicidal action against POLCO; format: in vivo, Polygonum convolvulus; conditions: 320 g/ha
quantity measured: Pre-emergence action against POLCO in % (%)
Report only the number, with the unit % understood.

>  <compound>
CC#Cc1cc(C)c(C2=C(OC(=O)OCC)C3(CCC(COCCC)C3)NC2=O)c(Cl)c1 (stereo not drawn) [Example P-87]

>  <Pre-emergence action against POLCO in %, %>
80

$$$$
>  <compound>
CC#Cc1cc(C)c(C2=C(OC(=O)OCC)C3(CCC(COC)C3)NC2=O)c(Br)c1 (stereo not drawn) [Example P-30]

>  <Pre-emergence action against POLCO in %, %>
80

$$$$
>  <compound>
CC#Cc1cc(C)c(C2=C(OC(=O)OCC)C3(CCC(COCC)C3)NC2=O)c(Cl)c1 (stereo not drawn) [Example P-28]

>  <Pre-emergence action against POLCO in %, %>
80

$$$$

Enquiry: // Input: CC#Cc1cc(C)c(C2=C(OC(=O)OCC)C3(CCC(COCC)C3)NC2=O)c(F)c1 (stereo not drawn) [Example P-54] . Output its Pre-emergence action against POLCO in % only.
Return: 80

Enquiry: State its Pre-emergence action against POLCO in %: CC#Cc1cc(F)c(C2=C(OC(=O)OCC)C3(CCC(COCCC)C3)NC2=O)c(OC)c1 (stereo not drawn) [Example P-82]
Return: 100

Enquiry: Output Pre-emergence action against POLCO in % of CC#Cc1cc(C)c(C2=C(O)C3(CCC(COCCOC)C3)NC2=O)c(Cl)c1 (stereo not drawn) [Example I-51]
Return: 80

====

system: VIOTR; assay: Pre-emergence herbicidal action against VIOTR; type: in vivo, Viola tricolor; settings: 320 g/ha
quantity measured: Pre-emergence action against VIOTR in % (%)
Give the number; % is assumed, so skip it.

Here's what some known entries look like.
>  <molecule>
CC#Cc1cc(C)c(C2=C(OC(=O)C(C)C)C3(CCC(COCC)C3)NC2=O)c(OC)c1 (centres unmarked) [Example P-60]

>  <Pre-emergence action against VIOTR in % [%]>
100

$$$$
>  <molecule>
CC#Cc1cc(C)c(C2=C(OC(=O)C(C)C)C3(CCC(COC)C3)NC2=O)c(F)c1 (centres unmarked) [Example P-58]

>  <Pre-emergence action against VIOTR in % [%]>
100

$$$$
>  <molecule>
C#CCOCC1CCC2(C1)NC(=O)C(c1c(C)cc(C#CC)cc1OC)=C2O (centres unmarked)

>  <Pre-emergence action against VIOTR in % [%]>
90

$$$$
>  <molecule>
CC#Cc1cc(C)c(C2=C(O)C3(CCC(COC)C3)NC2=O)c(Br)c1 (centres unmarked) [Example I-19]

>  <Pre-emergence action against VIOTR in % [%]>
100

$$$$
>  <molecule>
CC#Cc1cc(C)c(C2=C(O)C3(CCC(COC)C3)NC2=O)c(F)c1 (centres unmarked)

>  <Pre-emergence action against VIOTR in % [%]>
80

$$$$
>  <molecule>
CC#Cc1cc(C)c(C2=C(O)C3(CCC(COCC)C3)NC2=O)c(Br)c1 (centres unmarked) [Example I-20]

>  <Pre-emergence action against VIOTR in % [%]>
100

$$$$
>  <molecule>
CC#Cc1cc(C)c(C2=C(OC(=O)OCC)C3(CCC(COC)C3)NC2=O)c(Br)c1 (centres unmarked) [Example P-31]

>  <Pre-emergence action against VIOTR in % [%]>
100

$$$$

Enquiry: GET Pre-emergence action against VIOTR in % | system: VIOTR | item: CC#Cc1cc(C)c(C2=C(O)C3(CCC(COCCC)C3)NC2=O)c(OC)c1 (centres unmarked) [Example I-58]
Return: 90
